Please provide measured Dmax (%) H1975 # 28 DTC for the entries that follow.
# Test system: EGFR Del19/T790M/C797S (H1975-clone #28)
# ASSAY INFO: EGFR degradation HTRF assay, H1975-clone #28 DTC cells
# Format: cell-based
# MEASUREMENT CONDITIONS: H1975 # 28 DTC cells; maximum percentage of inhibition (degradation)
# Method: H1975-clone #28(Del19/T790M/C797S) and H1975-clone #23(Del19/C797S). EGFR-Del19/T790M/C797S and EGFR-Del19/C797S were stably expressed in H1975 cell lines by lentivirus-mediated over-expression, respectively. […] The inhibition (degradation) percentage of the compound was calculated by the following equation: Inhibition percentage of Compound=100-100×(Signal-low control)/(High control-low control), wherein signal=each test compound group […]
Answers are plain numbers, in %.

CCOc1cc(N2CCC(N3CCN(CC4CN(c5cc(F)cc6c5n(C)c(=O)n6C5CCC(=O)NC5=O)C4)CC3)CC2)c(CC)cc1Nc1ncc(Br)c(Nc2ccc3nc(CC)ccc3c2P(C)(C)=O)n1 (stereo not drawn)    76.06

Hey, quick one: what's Dmax (%) H1975 # 28 DTC for each of these?
1. CCOc1cc(N2CCC(N3CCN(C(=O)[C@@H]4CCN(c5cc(F)c([C@H]6CCC(=O)NC6=O)c(F)c5)C4)CC3)CC2)c(CC)cc1Nc1ncc(Br)c(Nc2ccc3c(=O)n(C)ncc3c2P(C)(C)=O)n1
2. CCOc1cc(N2CCC(N3CCN(CCCc4cc(F)cc5c4oc(=O)n5C4CCC(=O)NC4=O)CC3)CC2)c(CC)cc1Nc1ncc(Br)c(Nc2ccc3nc(CC)ncc3c2P(C)(C)=O)n1 (stereo not drawn) [Example 617]
3. CCc1cc(Nc2ncc(Br)c(Nc3ccc4nc(C)ccc4c3P(C)(C)=O)n2)c(OC2CC2)cc1N1CCC(N2CCN(CCc3cc4oc(=O)n(C5CCC(=O)NC5=O)c4cc3F)CC2)CC1 (stereo not drawn)
4. CCOc1cc(N2CCC(N3CCN(C[C@@H]4CCN(c5cc(F)cc6c5oc(=O)n6C5CCC(=O)NC5=O)C4)CC3)CC2)c(CC)cc1Nc1ncc(Br)c(Nc2ccc3nc(CC)ccc3c2P(C)(C)=O)n1 (stereo partly drawn)
5. CCc1cc(Nc2ncc(Br)c(Nc3ccc4nc(C)ccc4c3P(C)(C)=O)n2)c(OC)cc1N1CCC(N2CCN(C(=O)[C@@H]3CCN(c4cc(F)c([C@H]5CCC(=O)NC5=O)c(F)c4)C3)CC2)CC1

[82.54, 74.31, 77.35, 74.62, 84.8]

* * *

# TARGET: EGFR L858R/T790M/C797S (BaF3-LTC cells) (Homo sapiens, UniProt P00533, C797S/L858R/T790M)
# Construct: expressed in transfected cells; host or cells: BaF3
# Sequence (P00533 25-1210 T790M/C797S/L858R): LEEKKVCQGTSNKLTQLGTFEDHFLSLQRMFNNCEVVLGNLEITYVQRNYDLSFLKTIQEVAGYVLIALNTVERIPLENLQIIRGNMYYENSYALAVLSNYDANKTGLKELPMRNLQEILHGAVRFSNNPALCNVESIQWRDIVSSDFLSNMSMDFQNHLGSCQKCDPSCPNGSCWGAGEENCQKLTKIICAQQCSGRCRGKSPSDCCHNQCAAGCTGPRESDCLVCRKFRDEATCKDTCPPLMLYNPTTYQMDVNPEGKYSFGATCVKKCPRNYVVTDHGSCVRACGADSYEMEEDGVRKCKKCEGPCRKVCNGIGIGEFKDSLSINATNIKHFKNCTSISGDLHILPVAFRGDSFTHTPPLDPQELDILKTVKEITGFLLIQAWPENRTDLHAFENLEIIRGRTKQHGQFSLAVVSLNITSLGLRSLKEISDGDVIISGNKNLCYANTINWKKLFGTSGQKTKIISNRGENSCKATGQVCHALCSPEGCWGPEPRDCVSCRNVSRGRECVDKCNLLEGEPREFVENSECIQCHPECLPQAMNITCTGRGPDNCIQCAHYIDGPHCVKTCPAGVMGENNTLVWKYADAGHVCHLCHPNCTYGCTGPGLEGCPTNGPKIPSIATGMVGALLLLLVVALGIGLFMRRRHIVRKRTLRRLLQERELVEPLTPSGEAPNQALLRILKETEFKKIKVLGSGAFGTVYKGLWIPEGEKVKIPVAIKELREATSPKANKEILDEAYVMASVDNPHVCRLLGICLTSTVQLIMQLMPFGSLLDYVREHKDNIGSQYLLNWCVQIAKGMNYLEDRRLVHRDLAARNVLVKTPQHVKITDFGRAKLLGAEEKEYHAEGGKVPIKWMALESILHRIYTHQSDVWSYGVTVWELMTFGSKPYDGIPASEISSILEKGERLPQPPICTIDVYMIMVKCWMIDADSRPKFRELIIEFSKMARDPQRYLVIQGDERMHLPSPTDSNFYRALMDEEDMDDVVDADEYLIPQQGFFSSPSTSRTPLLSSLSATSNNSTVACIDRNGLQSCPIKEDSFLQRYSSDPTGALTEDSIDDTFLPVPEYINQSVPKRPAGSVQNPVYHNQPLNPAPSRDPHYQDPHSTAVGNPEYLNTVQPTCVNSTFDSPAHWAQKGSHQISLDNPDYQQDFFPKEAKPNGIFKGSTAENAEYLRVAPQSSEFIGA
# ASSAY INFO: EGFR degradation HTRF assay, BaF3-LTC cells
# Assay type: cell-based
# MEASUREMENT CONDITIONS: BaF3-LTC, 16h treatment, maximum percentage of degradation; read-out: LTC Dmax (%)
ATTRIBUTE MEASURED: Dmax (%)
Give bare numbers, in %.

Examples from the recorded data:
CCc1cc(Nc2ncc(Br)c(Nc3ccc4nccnc4c3P(C)(C)=O)n2)c(OC)cc1N1CCC(N2CCN(C3CN(c4cc(F)c(C5CCC(=O)NC5=O)c(F)c4)C3)CC2)CC1 (centres unmarked)    83.8
CCc1cc(Nc2ncc(Br)c(Nc3ccc4nccnc4c3P(C)(C)=O)n2)c(OC)cc1N1CCC(N2CCN(CCc3cc(F)c(C4CCC(=O)NC4=O)c(F)c3)CC2)CC1 (centres unmarked)    91.9
CCc1cc(Nc2ncc(Br)c(Nc3ccc4nccnc4c3P(C)(C)=O)n2)c(OC)cc1N1CCC(N2CCN(C(=O)CC3CN(c4ccc5c(c4)C(=O)N(C4CCC(=O)NC4=O)C5=O)C3)CC2)CC1 (centres unmarked)    75.6

Look up Dmax for the entries below, preserving their order.
1. CCc1cc(Nc2ncc(Br)c(Nc3ccc4nccnc4c3P(C)(C)=O)n2)c(OC)cc1N1CCC(N2CCN(C[C@H]3CCN(c4ccc5c(c4)C(=O)N(C4CCC(=O)NC4=O)C5=O)C3)CC2)CC1 (some centres unmarked)
2. COc1cc(N2CCC(N3CCN(CCC4CCN(c5cc(F)c(C6CCC(=O)NC6=O)c(F)c5)CC4)CC3=O)CC2)c(C)cc1Nc1ncc(Br)c(Nc2ccc3nccnc3c2P(C)(C)=O)n1 (centres unmarked)

1: 86.9; 2: 87.7
